I'd be grateful if you could share measured cell viability for these entries.
Tested on: Calu-3
Assay: cell viability relative to DMSO; higher = less toxic
Conditions: 72 h; 10 nM
Give bare numbers, in %.

Below: 6 compounds and their reported cell viability.
compound: S=C=Nc1ccc(N=C=S)cc1 [bitoscanate]
units.text: %
cell viability: 103

compound: COc1ccc(OC)c(CN(C(C)=O)c2cc(F)ccc2Oc2ccccc2)c1 [DAA-1106]
units.text: %
cell viability: 102

compound: Oc1ccc(-c2nc3cc(O)cc(Br)c3o2)cc1
units.text: %
cell viability: 99.1

compound: CCC(CC)O[C@@H]1C=C(C(=O)O)C[C@H](N)[C@H]1NC(C)=O [oseltamivir-carboxylate]
units.text: %
cell viability: 98.6

compound: CNC(=O)c1nn(C)c2c1C(C)(C)Cc1cnc(Nc3ccc(N4CCN(C)CC4)cc3)nc1-2
units.text: %
cell viability: 100

compound: COC(=O)/C=C/c1cc(O)ccc1O [erbstatin-analog]
units.text: %
cell viability: 97.6

Please give cell viability for each item listed below.
1. O=C(CCBr)N1CC[N+]2(CC1)CC[N+]1(CCN(C(=O)CCBr)CC1)CC2 [spirobromin]
2. O=C(c1ccc(F)cc1)C1CCN(CCn2c(=O)[nH]c3ccccc3c2=O)CC1 [ketanserin]
3. Fc1ccc(C(OCCN2CCN(CCCc3ccccc3)CC2)c2ccc(F)cc2)cc1 [vanoxerine]

Result:
1. 100
2. 95.8
3. 94.6

Data origin: the supplement of paper PMC13380429
